IC50 values, listed per item
Target: human ALK2 R206H (Homo sapiens, UniProt Q04771, R206H)
Construct: expressed in transfected cells; host or cells: HEK293 (ATCC CRL1573), lentivirus transduction, blasticidin selection
Sequence (Q04771 21-509 R206H): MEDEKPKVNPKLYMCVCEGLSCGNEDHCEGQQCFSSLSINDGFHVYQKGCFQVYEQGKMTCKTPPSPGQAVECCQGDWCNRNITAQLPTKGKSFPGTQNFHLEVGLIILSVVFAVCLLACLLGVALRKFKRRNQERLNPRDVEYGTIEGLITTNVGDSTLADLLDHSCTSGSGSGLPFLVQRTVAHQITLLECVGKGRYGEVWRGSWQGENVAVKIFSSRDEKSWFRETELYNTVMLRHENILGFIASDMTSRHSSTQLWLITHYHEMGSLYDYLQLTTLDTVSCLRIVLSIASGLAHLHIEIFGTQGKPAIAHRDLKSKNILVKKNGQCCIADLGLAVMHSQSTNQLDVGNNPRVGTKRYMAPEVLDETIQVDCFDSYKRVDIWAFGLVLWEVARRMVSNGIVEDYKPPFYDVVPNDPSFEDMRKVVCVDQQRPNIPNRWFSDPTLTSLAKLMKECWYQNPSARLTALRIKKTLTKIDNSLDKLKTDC
Test: Cell-based ALK2-R206H cell activity assay (Smad1-Ser463/Ser465 phosphorylation by AlphaLISA in HEK293-ALK2-R206H cells)
Conditions: read-out: Cell Line (Cell Assay IC50)

- smiles: "CCNC(=O)N1CCN(c2ccnn3cc(-c4ccc(C5(OC)CCN(C(C)C)CC5)c(F)c4)cc23)CC1"
  IC50: "< 100 nM"
- smiles: "CC(C)N1CCC(c2ccc(-c3cc4c(N5CCN(C(=O)OCC(F)(F)F)CC5)ccnn4c3)cc2)CC1"
  IC50: "< 100 nM"
- smiles: "CC(C)NC(=O)N1CCN(c2ccnn3cc(-c4ccc(C5CCN(C(C)C)CC5)cc4F)cc23)CC1"
  IC50: "< 100 nM"
- smiles: "CC(C)N1CCC(c2ccc(-c3cc4c(N5CCN(C(=O)OC6COC6)CC5)ccnn4c3)c(Cl)c2)CC1"
  IC50: "100 to 500 nM"

----------
Target: human ALK2 R206H (Homo sapiens, UniProt Q04771, R206H)
Construct: expressed in transfected cells; host or cells: HEK293 (ATCC CRL1573), lentivirus transduction, blasticidin selection
Assay: Cell-based ALK2-R206H cell activity assay (Smad1-Ser463/Ser465 phosphorylation by AlphaLISA in HEK293-ALK2-R206H cells)
Conditions: read-out: Cell Line (Cell Assay IC50)
measure_name: IC50

- compound: "CCNC(=O)N1CCN(c2ccnn3cc(-c4ccc([C@@H]5CCCN5)nc4)cc23)CC1"
  endpoint_value: "100 to 500 nM"
- compound: "N#C[C@H]1C[C@H](C(=O)N2CCN(c3ccnn4cc(-c5ccc([C@@H]6CCCNC6)cn5)cc34)CC2)C1"
  endpoint_value: "100 to 500 nM"
- compound: "CO[C@@]1(c2ccc(-c3cc4c(N5CCN(C(=O)[C@H]6C[C@H](C#N)C6)CC5)ccnn4c3)cc2)CCCNC1"
  endpoint_value: "< 100 nM"
- compound: "CCN1CCN(c2ccc(-c3cc4c(N5CCN(C(=O)C6(c7cccc(Cl)c7)CC6)CC5)ccnn4c3)cc2)CC1"
  endpoint_value: "> 500 nM"
- compound: "CC(C)N1CC[C@H](O)[C@@H](c2ccc(-c3cc4c(N5CCN(C(=O)OC6COC6)CC5)ccnn4c3)cc2)C1"
  endpoint_value: "< 100 nM"
- compound: "CO[C@]1(c2ccc(-c3cc4c(N5CCN(C(=O)NC(C)C)CC5)ccnn4c3)cc2F)CCCN(C(C)C)C1"
  endpoint_value: "< 100 nM"
- compound: "CCN1CC2CN(c3ccnn4cc(-c5ccc(N6CCN(C(C)C)CC6)cc5)cc34)CCN2C1=O (stereo not shown)"
  endpoint_value: "100 to 500 nM"
